biological target: CDK12 wt/CycK (Homo sapiens (Human)); test: Radiometric protein kinase assay (33PanQinase), Assay Condition A (thiol containing); settings: thiol containing (1.2 mM DTT), ATP 0.3 μM
Sequence (Q9NYV4 whole entry): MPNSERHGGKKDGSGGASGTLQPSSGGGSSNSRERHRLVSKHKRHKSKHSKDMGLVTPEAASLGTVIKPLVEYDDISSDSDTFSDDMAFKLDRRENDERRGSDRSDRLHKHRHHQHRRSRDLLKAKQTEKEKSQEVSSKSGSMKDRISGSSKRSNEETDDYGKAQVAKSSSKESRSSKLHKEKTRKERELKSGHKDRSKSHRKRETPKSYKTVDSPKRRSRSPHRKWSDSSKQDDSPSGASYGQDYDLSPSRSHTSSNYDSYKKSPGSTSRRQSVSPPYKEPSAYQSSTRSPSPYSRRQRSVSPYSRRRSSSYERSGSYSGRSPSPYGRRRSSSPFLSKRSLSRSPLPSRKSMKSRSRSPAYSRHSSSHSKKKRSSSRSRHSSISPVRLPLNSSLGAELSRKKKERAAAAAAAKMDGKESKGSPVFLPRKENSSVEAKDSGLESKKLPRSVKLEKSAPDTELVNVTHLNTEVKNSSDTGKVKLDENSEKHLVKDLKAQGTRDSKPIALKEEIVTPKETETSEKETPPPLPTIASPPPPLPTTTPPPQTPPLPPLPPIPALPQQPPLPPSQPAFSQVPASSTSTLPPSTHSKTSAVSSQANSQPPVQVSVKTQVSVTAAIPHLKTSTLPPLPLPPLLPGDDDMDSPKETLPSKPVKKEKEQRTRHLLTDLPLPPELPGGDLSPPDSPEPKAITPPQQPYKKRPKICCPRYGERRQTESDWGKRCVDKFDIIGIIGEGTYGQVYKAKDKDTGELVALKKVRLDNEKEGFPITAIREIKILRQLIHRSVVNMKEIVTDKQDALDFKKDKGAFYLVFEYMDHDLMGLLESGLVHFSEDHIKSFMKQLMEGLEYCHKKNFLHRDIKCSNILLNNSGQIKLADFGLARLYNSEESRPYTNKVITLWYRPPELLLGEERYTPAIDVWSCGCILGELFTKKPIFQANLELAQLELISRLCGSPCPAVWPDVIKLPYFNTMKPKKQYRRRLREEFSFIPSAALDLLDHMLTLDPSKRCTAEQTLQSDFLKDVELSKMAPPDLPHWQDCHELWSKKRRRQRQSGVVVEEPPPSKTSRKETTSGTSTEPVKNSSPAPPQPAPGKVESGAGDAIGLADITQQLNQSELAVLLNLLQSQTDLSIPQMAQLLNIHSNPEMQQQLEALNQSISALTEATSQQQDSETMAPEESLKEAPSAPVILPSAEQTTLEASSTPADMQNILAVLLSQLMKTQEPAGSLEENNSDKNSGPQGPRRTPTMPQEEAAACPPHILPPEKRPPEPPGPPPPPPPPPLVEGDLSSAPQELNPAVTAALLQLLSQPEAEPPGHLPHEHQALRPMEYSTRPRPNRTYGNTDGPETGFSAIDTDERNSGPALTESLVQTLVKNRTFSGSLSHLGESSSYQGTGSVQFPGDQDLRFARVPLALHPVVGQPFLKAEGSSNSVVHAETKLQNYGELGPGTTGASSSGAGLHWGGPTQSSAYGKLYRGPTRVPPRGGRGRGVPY
Sequence (O75909 whole entry partner): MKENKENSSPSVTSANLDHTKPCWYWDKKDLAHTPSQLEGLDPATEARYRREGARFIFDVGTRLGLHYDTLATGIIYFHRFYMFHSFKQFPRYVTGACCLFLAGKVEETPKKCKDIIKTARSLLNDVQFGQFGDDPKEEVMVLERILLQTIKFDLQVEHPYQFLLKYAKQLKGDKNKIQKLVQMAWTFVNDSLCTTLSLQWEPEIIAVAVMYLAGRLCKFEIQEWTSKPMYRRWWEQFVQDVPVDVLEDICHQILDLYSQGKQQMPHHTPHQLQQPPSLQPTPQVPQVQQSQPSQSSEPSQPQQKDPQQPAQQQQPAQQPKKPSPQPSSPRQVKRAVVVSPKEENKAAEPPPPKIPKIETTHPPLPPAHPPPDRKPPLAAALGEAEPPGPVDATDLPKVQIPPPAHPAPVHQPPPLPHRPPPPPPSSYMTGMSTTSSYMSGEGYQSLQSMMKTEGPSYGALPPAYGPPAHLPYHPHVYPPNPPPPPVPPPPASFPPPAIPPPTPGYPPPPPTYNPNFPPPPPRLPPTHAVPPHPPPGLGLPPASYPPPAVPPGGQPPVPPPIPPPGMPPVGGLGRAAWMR
pIC50: −log10 of the molar value.
TEST READOUT: pIC50

C=CC(=O)Nc1ccc(C(=O)N2CC[C@@H](Nc3ncc4ccc(C(=O)NC)cc4n3)C2)cc1 [Example 40] : ≥ 7.00
CCC(=O)Nc1ccc(C(=O)N2CC[C@@H](Nc3ncc4ccc(Cl)cc4n3)C2)cc1 [Example 53] : 6.00 to 7.00
C=CC(=O)N1CCCc2cc(C(=O)N3CC[C@@H](Nc4ncc5ccccc5n4)C3)ccc21 [Example 79] : ≥ 7.00
C=CC(=O)Nc1ccc(C(=O)N2CCC[C@@H](Nc3ncc4ccccc4n3)C2)cc1 [Example 1] : 5.00 to 6.00
CCC(=O)Nc1ccc(C(=O)N2CC[C@@H](Nc3cc4ccccc4cn3)C2)cc1 [Example 45] : 6.00 to 7.00
C=CC(=O)Nc1ccc(C(=O)N2CCC[C@@H](Nc3ncc4ccc(F)cc4n3)C2)cc1 [Example 5] : 5.00 to 6.00
CCC(=O)Nc1ccc(C(=O)N2CCC[C@@H](Nc3ncc4ccc(=O)n(C(C)C)c4n3)C2)cc1 [Example 24] : 4.52 to 5.00
C=CC(=O)N1CCOc2cc(C(=O)N3CC[C@@H](Nc4ncc5ccccc5n4)C3)ccc21 [Example 80] : ≥ 7.00

QUERY: Provide value of pIC50 for this record tested with CDK12 wt/CycK (Homo sapiens (Human)): C=CC(=O)Nc1ccc(C(=O)N2CC[C@@H](Nc3ncc4ccc(C#N)cc4n3)C2)cc1 [Example 37]
RESULT: ≥ 7.00

QUERY: Provide value of pIC50 for this record tested with CDK12 wt/CycK (Homo sapiens (Human)): C=CC(=O)Nc1ccc(C(=O)N2CC[C@@H](Nc3ncc4ccc(=O)n(C(C)C)c4n3)C2)cc1 [Example 43]
RESULT: ≥ 7.00
